Molecular target: BACE1 (Homo sapiens (Human))
Sequence (P56817 46-501, species assumed): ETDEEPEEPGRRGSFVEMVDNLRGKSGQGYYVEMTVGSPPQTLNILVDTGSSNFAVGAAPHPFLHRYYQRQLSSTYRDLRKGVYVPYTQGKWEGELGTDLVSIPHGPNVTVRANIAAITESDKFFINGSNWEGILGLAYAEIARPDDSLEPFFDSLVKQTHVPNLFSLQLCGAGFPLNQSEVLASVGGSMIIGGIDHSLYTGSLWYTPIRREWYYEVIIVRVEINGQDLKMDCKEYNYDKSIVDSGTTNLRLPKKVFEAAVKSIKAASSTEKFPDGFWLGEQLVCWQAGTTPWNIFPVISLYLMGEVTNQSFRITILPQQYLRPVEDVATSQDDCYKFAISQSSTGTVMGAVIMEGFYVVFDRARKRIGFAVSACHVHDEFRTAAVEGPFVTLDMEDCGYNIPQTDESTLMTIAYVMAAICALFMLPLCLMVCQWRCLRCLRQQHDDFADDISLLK
Test: BACE1 cell assay
Assay type: cell-based
Details: read-out: IC50 IP (μM) BACE1 Cell
Note to self: class labels come from recorded IC50, ranges listed here: bottom range: < 0.007 µM; center range: ≥ 0.007 µM and < 0.07 µM; top range: ≥ 0.07 µM

Pick a category. Item: CC(=O)[C@]12C[C@H]1[C@@](C)(c1cc(/C=C(\F)c3cnc(OCC(F)(F)F)cn3)ccc1F)N=C(N)S2
top range

Pick a category. Item: C#C[C@H](C)Oc1cnc(/C(F)=C/c2ccc(F)c([C@@]3(C)N=C(N)S[C@@]4(COC)C[C@H]43)c2)cn1
center range

Pick a category. Item: CNC(=O)[C@]12C[C@H]1[C@@](C)(c1cc(/C=C(\F)c3cnc(Cl)cn3)ccc1F)N=C(N)S2
bottom range

Pick a category. Item: CN(C)C(=O)[C@]12C[C@H]1[C@@](C)(c1cc(/C=C(\F)I)ccc1F)N=C(N)S2
top range

Pick a category. Item: CNC(=O)[C@]12C[C@H]1[C@@](C)(c1cc(/C=C(\F)c3cnc(OCC(C)=O)cn3)ccc1F)N=C(N)S2
top range

Pick a category. Item: COC(=O)[C@H]1CCCN1C(=O)[C@]12C[C@H]1[C@@](C)(c1cc(/C=C(\F)c3ccc(C#N)cn3)ccc1F)N=C(N)S2 [Example 130, bis(2,2,2-trifluoroacetate)]
center range

Pick a category. Item: CC#CCOc1cnc(/C(F)=C/c2ccc(F)c([C@@]3(C)N=C(N)S[C@@]4(S(C)(=O)=O)C[C@H]43)c2)cn1
bottom range

Pick a category. Item: C#CCOc1cnc(/C(F)=C/c2cnc(F)c([C@@]3(C)N=C(N)S[C@@]4(C(=O)N5CCOC[C@H]5C)C[C@H]43)c2)cn1
bottom range

Pick a category. Item: CNC(=O)[C@]12C[C@H]1[C@@](C)(c1cc(/C=C(\F)c3ccc(C#CC4(C)COC4)cn3)ccc1F)N=C(N)S2
top range

Pick a category. Item: CN(C)C(=O)[C@]12C[C@H]1[C@@](C)(c1cc(/C=C(\F)c3ccc(Br)cn3)ccc1F)N=C(N)S2
center range

Pick a category. Item: CN(C)C(=O)[C@]12C[C@H]1[C@@](C)(c1cc(/C=C(\F)c3ccc(C#N)cc3)ccc1F)N=C(N)S2
center range

Pick a category. Item: CN(C)C(=O)[C@]12C[C@H]1[C@@](C)(c1cc(/C=C(\F)c3cnc(OCC4COC4)cn3)ccc1F)N=C(N)S2
center range
